Just for reference, patent US20250073302A1 is where these values come from.

target system: 20S core particle (CP) proteasome
assay info: cell-based or functional assay
Non-standard residues stand in square brackets, D forms with d. dPhe(4-F) = N[C@H](Cc1ccc(F)cc1)C(=O)O
Examples of binders with documented TAS-1 (percent stimulation of 20S CP) follow.

The cases that follow already have their TAS-1 (percent stimulation of 20S CP) on record.
binder | TAS-1 (percent stimulation of 20S CP)
cyclo(T[dL]F[dPhe(4-F)]R[dA]) (SMILES CC(C)C[C@H]1NC(=O)[C@H]([C@@H](C)O)NC(=O)[C@@H](C)NC(=O)[C@H](CCCNC(=N)N)NC(=O)[C@@H](Cc2ccc(F)cc2)NC(=O)[C@H](Cc2ccccc2)NC1=O) [CyPPS18] | 246 % of DMSO
cyclo(T[dD]F[dF]R[dA]) (SMILES C[C@H]1NC(=O)[C@H](CCCNC(=N)N)NC(=O)[C@@H](Cc2ccccc2)NC(=O)[C@H](Cc2ccccc2)NC(=O)[C@@H](CC(=O)O)NC(=O)[C@H]([C@@H](C)O)NC1=O) [CyPPS10] | 173 % of DMSO

Shifting focus to the binder that follows.
Item: cyclo(T[dL]F[dF]A[dR]) (SMILES CC(C)C[C@H]1NC(=O)[C@H]([C@@H](C)O)NC(=O)[C@@H](CCCNC(=N)N)NC(=O)[C@H](C)NC(=O)[C@@H](Cc2ccccc2)NC(=O)[C@H](Cc2ccccc2)NC1=O) [CyPPS6] | TAS-1 (percent stimulation of 20S CP): 305 % of DMSO
